Exercise: for every item that follows, state its recorded cell viability.
system: HCI16 (cells of a triple-negative basal-like breast cancer xenograft); assay: cell viability (% of vehicle); higher = less cytotoxic; details: 10 µM; 72 h;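 further: PDX cells carrying CMV promoter-driven luciferase, viability read as total photon flux per second by IVIS imaging following D-luciferin, vehicle control 0.1% DMSO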
Numbers only.

{"Compound": "CC(C)(O/N=C(\\C(=O)N[C@@H]1C(=O)N2C(C(=O)[O-])=C(C[n+]3ccccc3)CS[C@H]12)c1csc(N)n1)C(=O)O [Ceftazidime]", "System": "HCI16", "cell viability": 149}
{"Compound": "COc1ccc(CC2c3cc(OC)c(OC)cc3CC[N+]2(C)CCC(=O)OCCCCCOC(=O)CC[N+]2(C)CCc3cc(OC)c(OC)cc3C2Cc2ccc(OC)c(OC)c2)cc1OC.O=S(=O)([O-])c1ccccc1.O=S(=O)([O-])c1ccccc1 (stereo not given) [Cisatracurium Besylate]", "System": "HCI16", "cell viability": 129}
{"Compound": "CC/C(=C(\\c1ccccc1)c1ccc(OCCN(C)C)cc1)c1ccccc1 [Tamoxifen]", "System": "HCI16", "cell viability": 88.8}
{"Compound": "Cc1ccc(O)c(C(CCN(C(C)C)C(C)C)c2ccccc2)c1.O=C(O)C(O)C(O)C(=O)O (stereo not given) [Tolterodine tartrate]", "System": "HCI16", "cell viability": 133}
{"Compound": "Cc1c(C(=O)Nc2ccc(N3CC(C)OC(C)C3)nc2)cccc1-c1ccc(OC(F)(F)F)cc1 (stereo not given) [LDE225 (NVP-LDE225,Erismodegib)]", "System": "HCI16", "cell viability": 94.8}
{"Compound": "COc1cc(Nc2ncc3c(n2)-c2ccc(Cl)cc2C(c2c(F)cccc2OC)=NC3)ccc1C(=O)O [MLN8237 (Alisertib)]", "System": "HCI16", "cell viability": 87.9}
{"Compound": "CCCc1nc(C(C)(C)O)c(C(=O)OCc2oc(=O)oc2C)n1Cc1ccc(-c2ccccc2-c2nn[nH]n2)cc1 [Olmesartan medoxomil]", "System": "HCI16", "cell viability": 182}
{"Compound": "COc1ccc2c(c1)c(CC(=O)O)c(C)n2C(=O)c1ccc(Cl)cc1 [Indomethacin]", "System": "HCI16", "cell viability": 92}
{"Compound": "Cc1c(Cl)cccc1Nc1ccccc1C(=O)O [Tolfenamic Acid]", "System": "HCI16", "cell viability": 103}
{"Compound": "Nc1cc(C(Cl)=C(Cl)Cl)c(S(N)(=O)=O)cc1S(N)(=O)=O [Clorsulon]", "System": "HCI16", "cell viability": 169}

Each compound below has a recorded value; state its cell viability.
1. CC1Cc2ccccc2N1NC(=O)c1ccc(Cl)c(S(N)(=O)=O)c1 (stereo not given) [Indapamide]
2. CC12CCC3c4ccc(O)cc4CCC3C1CC(O)C2O (stereo not given) [Estriol]
3. COc1ccc2cc(CCC(C)=O)ccc2c1 [Nabumetone]
4. CCCN1CCCCC1C(=O)Nc1c(C)cccc1C.Cl (stereo not given) [Ropivacaine HCl]

[128, 152, 136, 121]

Return the recorded cell viability value; entry: CC1(C)CCC(C)(C)c2cc(NC(=O)c3ccc(C(=O)O)cc3)ccc21 [Tamibarotene] 77.1
